target: human Granzyme B (human, UniProt P10144 21-247); experiment: cell-based or functional assay
Sequence (P10144 21-247 limits assumed): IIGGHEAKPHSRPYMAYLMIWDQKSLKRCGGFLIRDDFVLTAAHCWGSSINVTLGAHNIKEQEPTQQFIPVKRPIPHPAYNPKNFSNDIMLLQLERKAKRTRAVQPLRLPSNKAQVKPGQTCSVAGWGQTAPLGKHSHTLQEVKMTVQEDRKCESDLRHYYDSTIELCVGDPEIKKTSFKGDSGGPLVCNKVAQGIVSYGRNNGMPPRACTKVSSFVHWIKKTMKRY
Bridge positions count the residues as written; N and C are the ends.
Readout: Human Granzyme B IC50 (fluorogenic substrate enzyme inhibition assay)

Binder	Value Reported
{CH2CO}-FNFEDQSADTWQPCG-NH2 (thioether N-14; SMILES C[C@@H]1NC(=O)[C@H](CO)NC(=O)[C@H](CCC(N)=O)NC(=O)[C@H](CC(=O)O)NC(=O)[C@H](CCC(=O)O)NC(=O)[C@H](Cc2ccccc2)NC(=O)[C@H](CC(N)=O)NC(=O)[C@H](Cc2ccccc2)NC(=O)CSC[C@@H](C(=O)NCC(N)=O)NC(=O)[C@@H]2CCCN2C(=O)[C@H](CCC(N)=O)NC(=O)[C@H](Cc2c[nH]c3ccccc23)NC(=O)[C@H]([C@@H](C)O)NC(=O)[C@H](CC(=O)O)NC1=O) [Compound 1a]	< 8 nM
